Measured TGI of individual entries
Test system: RPMI-8226 leukemia
ASSAY PROCEDURE: NCI tumour cell line growth inhibition, 48 h

Here's what some known entries look like.
COMPOUND: COC(=O)C(Cc1nc2ccc(Cl)cc2[nH]c1=O)/C(=N/O)C(=O)Nc1cccc(Cl)c1C (stereo not given)
TGI: > 100 µM
//
COMPOUND: CN=C(NC#N)N(Cc1ccccc1)Cc1ccccc1
TGI: > 100 µM
//
COMPOUND: CCOP(=O)(/C=C/n1ccc(=O)[nH]c1=O)OCC
TGI: > 100 µM

Entry "CC(C)(C)C1=NC(=S)SC2=NC(=O)C3(NN21)c1ccccc1-c1ccccc13" , RPMI-8226 leukemia data, TGI value: > 10 µM

Tested system RPMI-8226 leukemia; TGI recorded for "Nc1ccccc1C(=O)CCc1c[nH]c2ccccc12" was > 100 µM

The compound "O=C(O)CCc1nc2c(n1Cc1ccccc1)C(=O)c1ccccc1C2=O" on RPMI-8226 leukemia: TGI was > 100 µM

Simply: "CN1CCN(C(=S)N(C(=O)c2cccs2)c2ccccc2)CC1" , RPMI-8226 leukemia, TGI = > 100 µM
